Molecular target: T1, recombinant biotinylated human PAR2 extracellular domain (residues 1-75), N-terminal AviTag, C-terminal Flag … (human, UniProt P55085 26-75, biotin on the AviTag (enzymatic biotinylation))
T1 construct: also called Bio-human-PAR2 ECD; human PAR2 ECD; not shown: N-terminal AviTag (Avidity LLC); C-terminal Flag and poly Histidine tags
T1 sequence (P55085 26-75): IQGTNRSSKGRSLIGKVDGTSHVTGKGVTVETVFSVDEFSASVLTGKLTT
Experiment: HTRF competition with Dylight650-Par0067 IgG, IgG
Below, each entry is listed alongside its reported Fold IC50 (pH 6.0 v pH 7.4).

{"binder": "PaB670143 IgG (antibody, V domains shown, IgG1-TM (L234F, L235E, P331S), human lambda light chain) VH: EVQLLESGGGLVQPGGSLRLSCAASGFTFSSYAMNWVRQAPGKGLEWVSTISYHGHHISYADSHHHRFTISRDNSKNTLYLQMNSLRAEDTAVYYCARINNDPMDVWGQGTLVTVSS VL: SIELTQPPSVSVSPGQTASITCSGDNLGKKYVQWYQQKPGQSPVLVIYDDSNRPSGIPERFSGSNSGNTATLTISGTQAMDEADYYCQTWDGNPTHGETNVFGGGTKLTVL", "unitAbbreviation": "fold", "Fold IC50 (pH 6.0 v pH 7.4)": 11.8}
{"binder": "PaB670151 IgG (antibody, V domains shown, IgG1-TM (L234F, L235E, P331S), human lambda light chain) VH: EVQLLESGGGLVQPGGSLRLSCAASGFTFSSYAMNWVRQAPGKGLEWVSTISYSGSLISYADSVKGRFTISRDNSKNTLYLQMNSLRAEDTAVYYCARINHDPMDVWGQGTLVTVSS VL: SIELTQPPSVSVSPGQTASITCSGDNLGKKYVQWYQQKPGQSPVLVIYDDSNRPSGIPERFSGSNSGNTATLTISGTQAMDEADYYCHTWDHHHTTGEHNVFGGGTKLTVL", "unitAbbreviation": "fold", "Fold IC50 (pH 6.0 v pH 7.4)": 11.5}
{"binder": "PaB670157 IgG (antibody, V domains shown, IgG1-TM (L234F, L235E, P331S), human lambda light chain) VH: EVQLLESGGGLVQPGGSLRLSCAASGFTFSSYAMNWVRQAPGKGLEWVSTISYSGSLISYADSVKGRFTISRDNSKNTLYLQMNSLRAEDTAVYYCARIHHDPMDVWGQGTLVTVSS VL: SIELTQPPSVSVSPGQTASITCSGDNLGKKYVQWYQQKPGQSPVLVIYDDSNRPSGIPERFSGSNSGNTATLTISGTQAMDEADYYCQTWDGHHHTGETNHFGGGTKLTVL", "unitAbbreviation": "fold", "Fold IC50 (pH 6.0 v pH 7.4)": 59}
